target_or_system: ZNF718
assay_summary: pooled miR-30 sensor sort-seq; sequence = guide strand; note: reference of the scale not given here
settings: shRNA
Think of -0.06 as a floor: if sensor-assay potency score (higher = more potent) stands on it or above, it is t; beneath it, f.

sequence_content: TTTTGTGTTGAGTTAGGCGTGA
discrete_label: t

sequence_content: ATATCTTATCTTATCTTTGTTT
discrete_label: f

sequence_content: ATTTGTAGTATTTTTGTGCAGA
discrete_label: f

sequence_content: TTATGTGTCGTAAGAGTTGTGG
discrete_label: t

sequence_content: TCTATTATAACCACCTTTCTGC
discrete_label: f

sequence_content: TAATTCTATTATAACCACCTTT
discrete_label: f

====

The reader will find reported sensor-assay potency score (higher = more potent) values listed item by item below.
target_or_system: STARD13
assay_summary: pooled miR-30 sensor sort-seq; sequence = guide strand
settings: shRNA
observable: sensor-assay potency score (higher = more potent)

sequence_content: TTGTCATAGATACTGACTCGGC
target_or_system: STARD13
assay_result: -0.87

sequence_content: ATGAACTTTGGAACTGACCATG
target_or_system: STARD13
assay_result: -1.26

sequence_content: TTGCTGAATACTTTGAGGCAGG
target_or_system: STARD13
assay_result: -0.948

sequence_content: TATAACTGAGCGTATTGCGGGA
target_or_system: STARD13
assay_result: -0.462

sequence_content: TTGAATTTTAGTCACTAGCTGA
target_or_system: STARD13
assay_result: -0.1

====

target_or_system: ZNF829
assay_summary: pooled miR-30 sensor sort-seq; sequence = guide strand
settings: shRNA
The reader will find reported sensor-assay potency score (higher = more potent) values listed item by item below.
observable: sensor-assay potency score (higher = more potent)

sequence_content: TTGAGCAATACTTAAAGGCTTT
assay_result: -0.25

sequence_content: TACTTGACTGAAATGTCTCTTC
assay_result: 0.284

sequence_content: TTCATCTGTATGGATTCTCTGA
assay_result: 0.0212

sequence_content: TTCTCCAACATCACTTCTTTGT
assay_result: -0.439

====

target_or_system: C1orf84
assay_summary: pooled miR-30 sensor sort-seq; sequence = guide strand
settings: shRNA
observable: sensor-assay potency score (higher = more potent)

sequence_content: ATTAACAGGAACACCTGCCCAG
assay_result: 0.146
//
sequence_content: TCATCAAACAAGATCTCCCCTG
assay_result: -0.444
//
sequence_content: TTAACAGGAACACCTGCCCAGC
assay_result: -1.3
//
sequence_content: TTCATTAACAGGAACACCTGCC
assay_result: 0.858
//
sequence_content: TAGTTACATAGATCTCAGGCTG
assay_result: -0.122
//
sequence_content: TTTCATTAACAGGAACACCTGC
assay_result: 0.405
//
sequence_content: TTGGTGCAGATGACTGAGGAAC
assay_result: -1.39
//
sequence_content: TTCCTGTTCAGACAGCATCTCC
assay_result: -0.954
//
sequence_content: TTCATCAAACAAGATCTCCCCT
assay_result: 0.55

====

target_or_system: MRC1L1
assay_summary: pooled miR-30 sensor sort-seq; sequence = guide strand
settings: shRNA
Think of -0.4 as a floor: if sensor-assay potency score (higher = more potent) stands on it or above, it is 1; beneath it, -1.

sequence_content: TAGAGAGTGATAGCAACCCAGT
discrete_label: -1
//
sequence_content: TTGCTCATGAATCTCTGTGATG
discrete_label: -1
//
sequence_content: TTTCTGAACAATCCTATCCAAA
discrete_label: -1
//
sequence_content: TTCTGAATTGACATCATTCAGC
discrete_label: 1
//
sequence_content: TAACAACACAGTCAGCATCTTC
discrete_label: 1

====

target_or_system: C13orf33
assay_summary: pooled miR-30 sensor sort-seq; sequence = guide strand
settings: shRNA
observable: sensor-assay potency score (higher = more potent)

sequence_content: TACCTCTTGATGTAGCTGCTGA
assay_result: 0.0733
--
sequence_content: TTTATAATCACAGTAGTTGGTC
assay_result: 0.0911
--
sequence_content: TAACTTAATCGTCTCCTTCTTT
assay_result: -0.331
--
sequence_content: TTACACTGAACTTTCGGTCAGA
assay_result: 0.151
--
sequence_content: TAATAAAGAACAACATTGGTTT
assay_result: -0.342

====

target_or_system: MED31
assay_summary: pooled miR-30 sensor sort-seq; sequence = guide strand
settings: shRNA
Think of -0.8 as a floor: if sensor-assay potency score (higher = more potent) stands on it or above, it is condition met; beneath it, condition not met.

sequence_content: TCTAACATGTGTAAACACTGAG
discrete_label: condition met

sequence_content: TTTTTTGTCTTCACTGTACAAA
discrete_label: condition met

sequence_content: TTGCACAAATTCCAACTCCAAC
discrete_label: condition not met

sequence_content: TCGATTTCCAGCATCATCTGTC
discrete_label: condition met

sequence_content: AACATGTGTAAACACTGAGGGT
discrete_label: condition not met

sequence_content: TCCAACTCCAACTGAAACCGAA
discrete_label: condition not met

sequence_content: TATTGGAGCAGCTCTAACATGT
discrete_label: condition met

====

target_or_system: FGFR1
assay_summary: pooled miR-30 sensor sort-seq; sequence = guide strand
settings: shRNA
observable: sensor-assay potency score (higher = more potent)

sequence_content: TTGTGCACAGCCATCTGGCTGT
target_or_system: FGFR1
assay_result: -0.135
--
sequence_content: TTACTGGGCTTGTCCATGCGGT
target_or_system: FGFR1
assay_result: -0.849
--
sequence_content: TGTCTTTTTATAGTAGTCGATG
target_or_system: FGFR1
assay_result: -1.03
--
sequence_content: TAGCGGTGCAGAGTGTGGCTGT
target_or_system: FGFR1
assay_result: -0.244
--
sequence_content: TTTTAATATATAGCAACTGATG
target_or_system: FGFR1
assay_result: -1.31
--
sequence_content: TCATTCTCCACAATGCAGGTGT
target_or_system: FGFR1
assay_result: 0.557
--
sequence_content: TTCTTTTCCATCTTTTCTGGGG
target_or_system: FGFR1
assay_result: -0.274
--
sequence_content: TTGTCGGTGGTATTAACTCCAG
target_or_system: FGFR1
assay_result: -1.38
--
sequence_content: TTCATCATCTCCATTTCTGAGA
target_or_system: FGFR1
assay_result: -0.548
--
sequence_content: TTACACATGAACTCCACGTTGC
target_or_system: FGFR1
assay_result: 0.903
--
sequence_content: TTGAACTTCACTGTCTTGGCAG
target_or_system: FGFR1
assay_result: 0.751
--
sequence_content: TAAATCTCTGGTAACGACCCTT
target_or_system: FGFR1
assay_result: 0.102
--
sequence_content: TTGTAGACGATGACCGACCCCA
target_or_system: FGFR1
assay_result: -0.237
--
sequence_content: TGAACTTCACTGTCTTGGCAGC
target_or_system: FGFR1
assay_result: -0.906
--
sequence_content: TTTATAGTAGTCGATGTGGTGA
target_or_system: FGFR1
assay_result: -0.221

====

target_or_system: CRIPAK
assay_summary: pooled miR-30 sensor sort-seq; sequence = guide strand
settings: shRNA
Think of -0.2 as a floor: if sensor-assay potency score (higher = more potent) stands on it or above, it is satisfied; beneath it, not satisfied.

sequence_content: TCCACATGGGCACATGAGCAGG
target_or_system: CRIPAK
discrete_label: not satisfied

sequence_content: TACGGTAACAGCGTCTGACTCG
target_or_system: CRIPAK
discrete_label: satisfied

sequence_content: TCGACATGTGTGAGCAGGCGGG
target_or_system: CRIPAK
discrete_label: not satisfied

sequence_content: TATAAAAGGGATCCTTGACATA
target_or_system: CRIPAK
discrete_label: not satisfied

sequence_content: TACAGAACCACCATGCCAGGGC
target_or_system: CRIPAK
discrete_label: satisfied

sequence_content: ACCTACAGAACCACCATGCCAG
target_or_system: CRIPAK
discrete_label: not satisfied

====

target_or_system: IL10
assay_summary: pooled miR-30 sensor sort-seq; sequence = guide strand
settings: shRNA
observable: sensor-assay potency score (higher = more potent)

sequence_content: TTAACAACAAGTTGTCCAGCTG
assay_result: -0.0308

sequence_content: TTGATGAAGATGTCAAACTCAC
assay_result: -0.225

sequence_content: TAGGCTTCTATGTAGTTGATGA
assay_result: -0.258

sequence_content: AACAACAAGTTGTCCAGCTGAT
assay_result: 0.182

sequence_content: TGAAAGAAAGTCTTCACTCTGC
assay_result: 0.368

sequence_content: TTTAACAACAAGTTGTCCAGCT
assay_result: 0.786
